Kindly supply the reported pIC50 values for the records listed here.
- target_or_test_system: 5-lipoxygenase (5-LOX) (Homo sapiens, UniProt P09917)
- Sequence (P09917 whole entry, species assumed): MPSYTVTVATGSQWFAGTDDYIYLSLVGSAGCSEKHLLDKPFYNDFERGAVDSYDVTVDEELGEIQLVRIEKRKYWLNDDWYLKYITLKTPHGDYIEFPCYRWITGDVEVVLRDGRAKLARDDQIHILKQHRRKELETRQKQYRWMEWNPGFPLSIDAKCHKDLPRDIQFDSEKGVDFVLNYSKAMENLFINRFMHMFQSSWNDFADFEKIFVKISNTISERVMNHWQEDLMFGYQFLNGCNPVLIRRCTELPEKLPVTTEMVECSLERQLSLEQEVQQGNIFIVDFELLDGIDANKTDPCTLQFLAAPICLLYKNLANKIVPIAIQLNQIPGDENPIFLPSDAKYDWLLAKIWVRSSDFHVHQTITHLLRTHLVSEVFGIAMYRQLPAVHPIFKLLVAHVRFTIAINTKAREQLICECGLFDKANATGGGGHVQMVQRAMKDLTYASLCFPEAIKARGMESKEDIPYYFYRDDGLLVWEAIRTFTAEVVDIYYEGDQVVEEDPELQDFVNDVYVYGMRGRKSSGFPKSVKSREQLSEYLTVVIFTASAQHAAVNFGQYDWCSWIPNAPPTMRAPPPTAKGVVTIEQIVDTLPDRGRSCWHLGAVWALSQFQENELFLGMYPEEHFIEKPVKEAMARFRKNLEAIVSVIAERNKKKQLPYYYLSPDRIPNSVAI
Interpret pIC50 as the negative base-10 log of the concentration measured in mol/L.

Input: Notebook: pull reported pIC50 for 5-lipoxygenase (5-LOX) (Homo sapiens, UniProt P09917), entry CC1(C)CC[C@]2(C(=O)O)CC[C@]3(C)C(=CC[C@@H]4[C@@]5(C)CC[C@H](O)C(C)(C)[C@@H]5CC[C@]43C)[C@@H]2C1
Output: 2.85

Input: 5-lipoxygenase (5-LOX) (Homo sapiens, UniProt P09917) / pIC50 / C[C@H]1[C@H](C)CC[C@]2(C(=O)O)CC[C@]3(C)C(=CC[C@@H]4[C@@]5(C)CC[C@H](O)C(C)(C)[C@@H]5CC[C@]43C)[C@H]12 : value?
Output: 2.80

Input: API: value(readout=pIC50, system=5-lipoxygenase (5-LOX) (Homo sapiens, UniProt P09917)) for record CC[C@H](CC[C@@H](C)[C@H]1CC[C@H]2[C@@H]3CC=C4C[C@@H](O)CC[C@]4(C)[C@H]3CC[C@]12C)C(C)C
Output: 2.38

====

- target_or_test_system: cyclooxygenase 1 (COX-1) (Homo sapiens)
- Construct: purchased Cayman Chemicals 701070
- Sequence (P23219 24-599): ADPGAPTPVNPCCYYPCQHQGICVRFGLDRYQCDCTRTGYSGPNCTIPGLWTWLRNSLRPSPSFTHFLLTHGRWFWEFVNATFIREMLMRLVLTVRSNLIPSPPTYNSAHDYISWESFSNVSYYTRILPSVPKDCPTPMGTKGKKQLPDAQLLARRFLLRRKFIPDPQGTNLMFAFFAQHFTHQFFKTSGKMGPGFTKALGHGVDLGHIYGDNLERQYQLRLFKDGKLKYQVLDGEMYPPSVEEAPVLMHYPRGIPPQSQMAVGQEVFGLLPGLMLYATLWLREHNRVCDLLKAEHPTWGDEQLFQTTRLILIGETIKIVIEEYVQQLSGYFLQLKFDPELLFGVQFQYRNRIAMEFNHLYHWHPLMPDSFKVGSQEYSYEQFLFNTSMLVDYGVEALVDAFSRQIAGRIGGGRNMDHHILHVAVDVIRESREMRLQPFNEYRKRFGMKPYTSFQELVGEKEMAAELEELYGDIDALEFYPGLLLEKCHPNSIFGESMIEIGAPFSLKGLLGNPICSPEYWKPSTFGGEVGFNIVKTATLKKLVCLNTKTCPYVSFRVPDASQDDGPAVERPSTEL
- test_summary: COX-1 inhibition (commercial kit, Cayman Chemicals item 701070)
- Type: biochemical
- condition_info: expressed per dry mass; 1% DMSO
Please go through the items and note down their pIC50.
Notebook: values listed as pIC50 are -log10 of the concentration (mol/L).

Input: Requested field: pIC50. Item: O=C(CCc1ccc(O)cc1)c1c(O)cc(O)cc1O[C@@H]1O[C@H](CO)[C@@H](O)[C@H](O)[C@H]1O
Output: 2.66

Input: Fill blank: measured pIC50 of the molecule C[C@H]1[C@H](C)CC[C@]2(C(=O)O)CC[C@]3(C)C(=CC[C@@H]4[C@@]5(C)CC[C@H](O)C(C)(C)[C@@H]5CC[C@]43C)[C@H]12 is ____.
Output: 3.94

Input: Would you kindly share the measured pIC50 for O=C(/C=C/c1ccc(O)c(O)c1)O[C@@H]1C[C@](O)(C(=O)O)C[C@@H](O)[C@H]1O ?
Output: 2.53

====

Sequence of the target: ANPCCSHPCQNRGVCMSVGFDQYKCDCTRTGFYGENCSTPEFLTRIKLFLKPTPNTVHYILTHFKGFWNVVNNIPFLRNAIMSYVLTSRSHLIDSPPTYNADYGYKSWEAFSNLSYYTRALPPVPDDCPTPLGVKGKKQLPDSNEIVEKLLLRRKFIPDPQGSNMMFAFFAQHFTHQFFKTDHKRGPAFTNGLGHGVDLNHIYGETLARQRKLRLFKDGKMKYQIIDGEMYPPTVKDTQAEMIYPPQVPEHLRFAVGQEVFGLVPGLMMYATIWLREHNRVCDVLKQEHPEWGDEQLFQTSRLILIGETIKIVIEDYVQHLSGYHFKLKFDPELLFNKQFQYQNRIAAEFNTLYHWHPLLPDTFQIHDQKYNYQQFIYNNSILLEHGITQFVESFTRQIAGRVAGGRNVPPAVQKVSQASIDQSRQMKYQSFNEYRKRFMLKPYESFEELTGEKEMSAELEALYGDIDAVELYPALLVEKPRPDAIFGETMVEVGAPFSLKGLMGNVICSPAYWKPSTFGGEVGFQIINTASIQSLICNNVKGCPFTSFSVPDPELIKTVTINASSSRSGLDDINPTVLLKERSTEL
measurement_kind: IC50 (µM)
Use µM as the unit, but write only the number.

Input: Sample O=C(CCc1ccc(O)cc1)c1c(O)cc(O)cc1O[C@@H]1O[C@H](CO)[C@@H](O)[C@H](O)[C@H]1O — what was its IC50?
Output: 1480

Input: Which value of IC50 has been reported for CC[C@H](CC[C@@H](C)[C@H]1CC[C@H]2[C@@H]3CC=C4C[C@@H](O)CC[C@]4(C)[C@H]3CC[C@]12C)C(C)C in the records?
Output: 921

Input: Which IC50 value is on record for O=C(/C=C/c1ccc(O)c(O)c1)O[C@@H]1C[C@](O)(C(=O)O)C[C@@H](O)[C@H]1O ?
Output: 1730

Input: Record request: IC50 value, item C[C@H]1[C@H](C)CC[C@]2(C(=O)O)CC[C@]3(C)C(=CC[C@@H]4[C@@]5(C)CC[C@H](O)C(C)(C)[C@@H]5CC[C@]43C)[C@H]12
Output: 67.9
